Attribution: patent US20190194345A1

- measurement.target: T1, SAS1B extracellular domain (aa 164-431) polypeptide (human, UniProt Q6HA08 164-431)
- T1 construct: mammalian cell-expressed recombinant; also called truncated SAS1B
- T1 sequence: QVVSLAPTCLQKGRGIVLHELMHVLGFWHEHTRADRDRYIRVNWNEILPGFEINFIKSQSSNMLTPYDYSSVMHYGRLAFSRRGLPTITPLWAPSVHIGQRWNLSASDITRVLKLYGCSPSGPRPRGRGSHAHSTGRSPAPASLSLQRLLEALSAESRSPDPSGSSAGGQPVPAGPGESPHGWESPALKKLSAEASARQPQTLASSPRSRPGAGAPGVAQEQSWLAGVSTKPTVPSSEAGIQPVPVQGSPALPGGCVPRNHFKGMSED
- assay.info: western blot, mammalian cell-expressed recombinant SAS1B
reported.endpoint: binding result

Some solved entries appear below for comparison.
anti-human SAS1B murine monoclonal antibody SB3 (antibody, IgG2b, V domains shown, also called SB3 mAb) VH: EVQLQQSGPELVKPGSSVKISCKASGYTFTDYNMVWVKQSHGKSLEWIGAVNPNNGGTSYNQKFKGKATLTVDKSSSTAYMELRSLTSEDSAVYYCVPNWDWFAYWGQGTLVTVSA VL: DVLMTQTPLSLPVSLGDQASISCRSSQSLVHSNGNTYLEWYLQKPGQSPNLLIYKVSNRFSGVPDRFSGSGSGTDFTLKISRVEAEDLGVYYCFQGSHVPFTFGSGTKLEIK
no binding
anti-human SAS1B murine monoclonal antibody SB2 (antibody, IgG2b, V domains shown, also called SB2 mAb) VH: EVQLQQSGPELVKPGSSVKISCKASGYTFTDYNMVWVKQSHGKSLEWIGAVNPNNGGTSYNQKFKGKATLTVDKSSSTAYMELRSLTSEDSAVYYCVPNWDWFAYWGQGTLVTVSA VL: DVLMTQTPLSLPVSLGDQASISCRSSQSLVHSNGNTYLEWYLQKPGQSPNLLIYKVSNRFSGVPDRFSGSGSGTDFTLKISRVEAEDLGVYYCFQGSHVPFTFGSGTKLEIK
no binding
anti-human SAS1B murine monoclonal antibody SB1 (antibody, IgG2a, V domains shown, also called SB1 mAb) VH: EVQLQQSGPELVKPGSSVKISCKASGYTFTDYNMDWVKQSHGKSLEWIGAINPNNGGTSYNQKFKGKATLTVDKSSSTAYMELRSLTSEDSAVYYCATNEYWGQGTTLTVSS VL: NIVMTQSPKSMSMSVGERVTLSCKASENVGTYVSWYQQKPEQSPKLLIYGASNRYTGVPDRFTGSGSATDFTLTISSVQAEDLADYHCGQSYSYPWTFGGGTKLEIK
no binding
anti-human SAS1B murine monoclonal antibody SB4 (antibody, IgG2a, V domains shown, Mouse hybridoma antibody, isotype IgG2a-k; also called SB4 mAb) VH: EVQLQQSGPELVKPGSSVKISCKPSGYTFTDYNMVWMKQSHGKSLEWIGAINPNNGGTTYNQKFKGKATLTVDKSSSTAYMELRSLTSEDSAVYYCAPNWDWFAYWGQGTLVTVSA VL: DVLMTQTPLSLPVSLGDQASISCRSSQSILHSNGNTYLEWYLQKPGQSPKLLIYKVSNRFSGVPDRFSGSGSGTDFTLKISRVEAEDLGVYYCFQGSHVPFTFGSGTKLEIK
no binding
anti-human SAS1B murine monoclonal antibody SB5 (antibody, IgG2b, V domains shown, Mouse hybridoma antibody, isotype IgG2b-k; also called SB5 mAb) VH: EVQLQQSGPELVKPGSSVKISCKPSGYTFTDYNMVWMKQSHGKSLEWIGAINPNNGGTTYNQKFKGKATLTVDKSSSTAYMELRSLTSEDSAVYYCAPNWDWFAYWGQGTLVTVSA VL: DVLMTQIPLSLPVSLGDQASISCRSSQSILHSNGNTYLEWYLQKPGQSPKLLIYKVSNRFSGVPDRFSGSGSGTDFTLKISRVEAEDLGVYYCFQGSHVPFTFGSGTKLEIK
no binding

[Q] Return reported binding result. Input binder: anti-human SAS1B murine monoclonal antibody SB7 (antibody, IgG2b, V domains shown) VH: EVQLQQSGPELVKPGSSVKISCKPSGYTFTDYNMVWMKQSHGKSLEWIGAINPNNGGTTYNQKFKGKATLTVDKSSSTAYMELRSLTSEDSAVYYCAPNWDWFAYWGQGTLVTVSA VL: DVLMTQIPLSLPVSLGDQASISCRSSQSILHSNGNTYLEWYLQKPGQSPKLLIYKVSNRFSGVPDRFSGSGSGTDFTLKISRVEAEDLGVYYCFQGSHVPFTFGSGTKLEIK
[A] no binding

[Q] Please supply the value of reported binding result for the item anti-human SAS1B murine monoclonal antibody SB6 (antibody, IgG2b, V domains shown) VH: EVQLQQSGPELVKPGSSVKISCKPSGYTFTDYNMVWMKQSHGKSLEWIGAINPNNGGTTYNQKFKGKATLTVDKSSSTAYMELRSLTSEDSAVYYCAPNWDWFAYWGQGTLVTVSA VL: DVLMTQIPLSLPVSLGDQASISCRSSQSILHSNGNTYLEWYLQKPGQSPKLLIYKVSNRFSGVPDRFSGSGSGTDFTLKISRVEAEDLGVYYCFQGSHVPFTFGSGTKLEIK
[A] no binding
